Cited source: ChEMBL document CHEMBL4689842

- Test system: HEK-293T
- EXPERIMENT: Multiplex assay against HEK293T
- Type: toxicity, cell-based
- COND: human, 12 h, 1 µM, compound concentration 1 uM, replicate 1
Population Healthy Nuclei (%) listing for selected compounds.
Express your answer in %, writing the number without its unit.

COMPOUND	TARGET ENTITY	MEASURED VALUE
Cl.NC[C@@H]1O[C@H](C23CC4CC(CC(C4)C2)C3)Cc2c1ccc(O)c2O	HEK-293T	49
CN(c1cc(C(F)(F)F)nc(OCCC(=O)O)n1)c1cccc2c1CCC2	HEK-293T	34
CCCc1cc(C)[nH]c(=O)c1CNC(=O)c1cc(-c2ccc(N3CCN(C(C)C)CC3)nc2)cc2c1cnn2C(C)C	HEK-293T	25
CCCCN(CC)c1nc(C)nc2c1c(C)cn2-c1c(C)cc(C)cc1C.Cl	HEK-293T	45
CC(C)[C@H](CO)Nc1nc(Nc2cccc(Cl)c2)c2ncn(C(C)C)c2n1	HEK-293T	37

Query: Population Healthy Nuclei (%) for CC(C)C[C@H](NC(=O)[C@H](Cc1ccccc1)NC(=O)CNC(=O)CNC(=O)[C@@H](N)Cc1ccc(O)cc1)C(=O)O ?
Result: 23

Query: Population Healthy Nuclei (%) for Cc1ccc(S(=O)(=O)NC2c3ccccc3Oc3ccccc32)cc1 ?
Result: 44

Query: Population Healthy Nuclei (%) for C=CC(=O)Nc1cc(-n2c(=O)ccc3cnc4ccc(-c5ccc(NS(C)(=O)=O)cc5)cc4c32)ccc1C ?
Result: 22

Query: Population Healthy Nuclei (%) for Cl.Cn1c2c(c3ccc(Cl)c(Cl)c31)C(C#N)C1(CCNCC1)NC2=O (stereo not drawn) ?
Result: 66

Query: Population Healthy Nuclei (%) for C[C@@H](Oc1cc(-n2cnc3ccc(CN4CCN(C)CC4)cc32)sc1C(N)=O)c1ccccc1C(F)(F)F ?
Result: 19

Query: Population Healthy Nuclei (%) for Oc1cccc(-c2nc(N3CCOCC3)c3oc4ncccc4c3n2)c1 ?
Result: 16

Query: Population Healthy Nuclei (%) for Cc1c(Nc2ccc(S(=O)(=O)N3CCN(C)CC3)cc2F)nc2ccc(-c3cnn(C4CC4)c3)cn2c1=O ?
Result: 67

###

- Test system: HEK-293T
- EXPERIMENT: Multiplex assay against HEK293T
- Type: toxicity, cell-based
- COND: human, 48 h, 10 µM, compound concentration 10 uM, replicate 1
METRIC NAME: Population Normal (%)
Express your answer in %, writing the number without its unit.

// solved cases for Population Normal (%) follow
MOLECULE	TARGET ENTITY	MEASURED VALUE
CC(C)c1cc(Nc2nc(N3CCC[C@H](N)C3)ncc2C(N)=O)cc(C(C)C)n1	HEK-293T	82
c1ccc(-c2oc3ncnc(NC[C@@H]4CCCO4)c3c2-c2ccccc2)cc1	HEK-293T	76
C[C@@H](Oc1cc(-n2cnc3ccc(CN4CCN(C)CC4)cc32)sc1C(N)=O)c1ccccc1C(F)(F)F	HEK-293T	73

Query: Under HEK-293T: Population Normal (%) value of N#Cc1cccc(C(=O)Nc2cc(-c3ccccc3)nn2-c2ccccc2)c1 ?
Result: 88

Query: Under HEK-293T: Population Normal (%) value of Cc1c(Nc2ccc(S(=O)(=O)N3CCN(C)CC3)cc2F)nc2ccc(-c3cnn(C4CC4)c3)cn2c1=O ?
Result: 59
